# Target: human Nav1.1 (Homo sapiens)
# Construct: host or cells: HEK293
# Test Summary: Amplification of Nav1.1-derived voltage-gated sodium current (Nav1.1 current), automated patch clamp (Test 1)
# Assay type: cell-based
# Recorded Conditions: Concentration for evaluation 3 μM; HEK293 cell line stably expressing human Nav1.1
The label is 1 for Nav1.1 current amplification rate (%) below 50% and -1 for Nav1.1 current amplification rate (%) equal to or exceeding 50%.

• CC1CC=C(c2ccc(=O)n(CC(=O)N3CCc4c(CN5CCCC5)cccc43)n2)CC1 (centres unmarked) = 1
• CC1CC=C(c2ccc(=O)n(CC(=O)N3CCN(c4ccccc4)CC3)n2)CC1 (centres unmarked) = -1
• CN(c1cnc2cnn(CC(=O)Nc3ccc4ccccc4n3)c2n1)C1CC1 = 1
• CC1(C)CC=C(c2ccc(=O)n(CC(=O)N3CCc4c(C5CN(C6COC6)C5)cccc43)n2)CC1 = -1
• CC1CC=C(c2ccc(=O)n(CC(=O)N3CCc4c(-c5ccnn5C)cccc43)n2)CC1 (centres unmarked) = -1
